- experimentNotes: yeast display, Sf9 membrane polyspecificity reagent, FACS + sequencing; frameworks hold sequencing errors
measuredProperty: polyreactivity (PSR sort gate)

Some entries whose results are on file:
QVQLVESGGGLVQAGGSLRLSCAASGRIFNRYTMGWYRPAPGKEREFVAAISSRGGSTYYADSVKGRFTISRDNAKNTVDLQMYSLIPEDTAVYYCNKDYYWPLYAPYDSWGQGTRVTVSS : high polyreactivity
QVQLVESGGGLVQAGGSLRLSCAASGSTFHRNAMGWYRQAPGKERELVAAITSGGSTNYADSEKGRFTISRDNAKNTVYLQMNRLKPEDTPVYYCAKDDRHYNRGWYDYWGQGTQVTVSS : low polyreactivity
QVQLVESGGGLVQAGGSLRLSCAASGRIFGLYLGWYRQAPGKERELVATITWRGGSTYYADSVKGRFTISRDNAKNTVYLHLNSVKPEDTEVYYCAARGYRGRMGYWGQGTQVTVSS : low polyreactivity
QVQLVESGGGLVQAGGSLRLSCAASGSIFLSNAMGWYRQAPGKERELVAAISRRGASTYYADSVKGRFTISRDNAKNTVYFQMNSLKPEDTAVYYCAALSYSAYGYNYWGQGTQVTVSS : high polyreactivity

Let us examine a further case.
Ask: polyreactivity (PSR sort gate) for QVQLVESGGGLVQAGGSLRLSCAASGSIFVNNALGWYRQAPGKERELVAAISSRSSRTFYADSVKGRFTISRDNAKNTVYLQMNSLKPEDTAVYYCAVKKRAPDGDYWGQGTQVTVSS ?
Reply: high polyreactivity

---

- experimentNotes: yeast display, Sf9 membrane polyspecificity reagent, FACS + sequencing; frameworks hold sequencing errors
measuredProperty: polyreactivity (PSR sort gate)

QVQLVESGGGLVQAGGSLRLSCAASGSIFHNNAMGWYRQAPGKERELVASITSRGGSTYYADSVKGRFTISRDNAKNTVYLQMNSLKPEDTAVYYCAARPYARVKTHGYWGQGTQVTVSS : low polyreactivity
QVQLVESGGGLVQAGGSLRLSCAASGYIFGQNARGLYRQAPGKERELGASMSDGGSTYYADSVKGRFTISRDNAKNTVYLQLNSLKPEDTAVYYCAAYYSYGSTSHTYTCFDYWGQGTQVTVSS : low polyreactivity

---

- experimentNotes: yeast display, Sf9 membrane polyspecificity reagent, FACS + sequencing; frameworks hold sequencing errors
measuredProperty: polyreactivity (PSR sort gate)

QVQLVESGGGLVQAGGSLRLSCAASGSIFWGNAMGCYRQAPGKERELVASISDSGGSTYADSVKGRFTISRDNAKNTVYLQMNSLKPEDTAVYYCAADDWYSAGIRNWYYGGYDYWGQGTQVTVSS : low polyreactivity
QVQIVESGGGLVQAGGSLRLSCAASGRTVGYNPMGWYRQAPGKETELVAVIRSGGSTYYADSVKGRFTISRDNAQYSVYLQLHSLIPEDSEVYYCAATGLYNVTSPYSYKYDYWGQCTQVTVSS : low polyreactivity
QVQLVESGGGLVQAGGSLRFRCAASGRIFSYVMGWYRQAPGKERELVAAISTGGGNTYYADSVKGRFTISRDNAKNTVYLQMNSLKPEDTAVYYCAADYYAGTFDYWGQGTQVTVSS : high polyreactivity
QVQLVESGGGLFQAGGSLRLSCAASGRTFSHNGMGWYRQAPGKERELVATINRGGNTYYADSVKGRFTISRDNAKNTVYLQMNSLKPEDTAVYYCAARRSFLFDEGNYWGQGTQVTVSS : low polyreactivity

Ask: polyreactivity (PSR sort gate) for QVQLVESVGGLVQAGGSLRLSCAASGSIFWSNAMGWYRQAPGKERELVARISTSGGRTYYADSVKGRFTISRDNAKNTVYLQMNSLKPEDTAVYYCNAGKLYYRWLYDYWGQGTQVTVSS ?
Reply: high polyreactivity

Ask: Try the sequence QVQLVESGGGLVQAGGSLRLSCAASGSTLVRNAMGWSRPAPGKERDLVAAITSSGGRTYYADSVKGRFTISRDTAKNTVYLQMNSLKPEDTAVYYCNRVSRYYLYDYWGQGTQVTVSS
Reply: high polyreactivity

Ask: Try the sequence QVQLVESGGGLVQAGGSLRLSCAASGSTFWVYAMGWYRQAPGKERELVASITFSGSSTYYADSVKGRFTISRDNAKNTVYLQMNSLKPEDTAVYYCAAGEGGDRSRGYLSQYGYWGQGTQVTVSS
Reply: low polyreactivity

Ask: Try the sequence QLQHVESGGGLVQAGGRLRLSCAASGFTFYYYAMGWYRPEPGKERELVAAISSTGGSTYYADSVKGRFTISRDNAKNTVYLQMNSMKPEDTAVYYCNAACYRYPGDYDYWGQGTQVTVSS
Reply: high polyreactivity
